target: histamine H1 receptor (Homo sapiens, UniProt P35367)
Sequence (P35367 whole entry): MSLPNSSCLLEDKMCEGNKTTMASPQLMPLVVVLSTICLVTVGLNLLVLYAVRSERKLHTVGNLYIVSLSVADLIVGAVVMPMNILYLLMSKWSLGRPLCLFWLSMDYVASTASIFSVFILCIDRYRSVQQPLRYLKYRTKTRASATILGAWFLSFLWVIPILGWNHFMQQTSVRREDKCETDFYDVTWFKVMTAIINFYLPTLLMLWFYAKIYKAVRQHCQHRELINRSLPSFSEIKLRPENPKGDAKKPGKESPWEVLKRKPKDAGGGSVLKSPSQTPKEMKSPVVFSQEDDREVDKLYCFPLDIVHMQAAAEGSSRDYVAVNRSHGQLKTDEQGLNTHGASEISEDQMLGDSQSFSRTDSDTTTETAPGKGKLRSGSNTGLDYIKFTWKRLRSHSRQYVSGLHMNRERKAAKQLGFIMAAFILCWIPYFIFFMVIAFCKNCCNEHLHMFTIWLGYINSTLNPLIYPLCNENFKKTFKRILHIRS
Structures can show the parent of a compound that is named as a salt.
Observed property: Ki

Recorded Ki, per entry:
- Compound: "CCCN1CC(c2ccc3c(ccn3S(=O)(=O)c3cccc(C(F)(F)F)c3)c2)C1 [compound 25, hydrochloride]"
  Observed property: "Ki"
  Observed result: "> 1000 nM"
- Compound: "O=S(=O)(c1ccccc1)n1ccc2cc(C3CNC3)ccc21 [compound 2, hydrochloride]"
  Observed property: "Ki"
  Observed result: "> 10000 nM"
- Compound: "O=S(=O)(c1ccccc1)n1ccc2cc(C3CNC3)cnc21 [compound 46, formic acid salt]"
  Observed property: "Ki"
  Observed result: "> 10000 nM"
- Compound: "CCCN1CC(c2ccc3c(ccn3S(=O)(=O)c3cccc(OC(F)(F)F)c3)c2)C1 [compound 26, hydrochloride]"
  Observed property: "Ki"
  Observed result: "> 1000 nM"
- Compound: "O=S(=O)(c1ccccc1)N1CCc2cc(C3CNC3)ccc21 [compound 7, hydrochloride]"
  Observed property: "Ki"
  Observed result: "> 1000 nM"
- Compound: "O=S(=O)(c1cccc(C(F)(F)F)c1)N1CCc2cc(C3CNC3)ccc21 [compound 30, hydrochloride]"
  Observed property: "Ki"
  Observed result: "> 1000 nM"
- Compound: "CCCN1CC(c2ccc3c(ccn3S(=O)(=O)c3ccccc3)c2)C1 [compound 5, hydrochloride]"
  Observed property: "Ki"
  Observed result: "> 1000 nM"
- Compound: "O=S(=O)(c1ccccc1OC(F)(F)F)n1ccc2cc(C3CNC3)ccc21"
  Observed property: "Ki"
  Observed result: "> 1000 nM"
- Compound: "CCCN1CC(c2ccc3c(ccn3S(=O)(=O)c3cccc(OC(F)F)c3)c2)C1 [compound 27, hydrochloride]"
  Observed property: "Ki"
  Observed result: "> 1000 nM"
- Compound: "O=S(=O)(c1cccc(C(F)(F)F)c1)n1ccc2cc(C3CNC3)ccc21 [compound 19, hydrochloride]"
  Observed property: "Ki"
  Observed result: "> 10000 nM"

Prompt: # lookup: Ki of O=S(=O)(c1cccc(OC(F)F)c1)n1ccc2cc(C3CNC3)ccc21 [compound 21, hydrochloride]
Completion: > 10000 nM

Prompt: Another compound: O=S(=O)(c1cccc(OC(F)(F)F)c1)n1ccc2cc(C3CNC3)ccc21 [compound 20, hydrochloride]
Completion: > 10000 nM

----------
target: h-5-HT6 receptor (Homo sapiens, UniProt P50406)
Sequence (P50406 whole entry): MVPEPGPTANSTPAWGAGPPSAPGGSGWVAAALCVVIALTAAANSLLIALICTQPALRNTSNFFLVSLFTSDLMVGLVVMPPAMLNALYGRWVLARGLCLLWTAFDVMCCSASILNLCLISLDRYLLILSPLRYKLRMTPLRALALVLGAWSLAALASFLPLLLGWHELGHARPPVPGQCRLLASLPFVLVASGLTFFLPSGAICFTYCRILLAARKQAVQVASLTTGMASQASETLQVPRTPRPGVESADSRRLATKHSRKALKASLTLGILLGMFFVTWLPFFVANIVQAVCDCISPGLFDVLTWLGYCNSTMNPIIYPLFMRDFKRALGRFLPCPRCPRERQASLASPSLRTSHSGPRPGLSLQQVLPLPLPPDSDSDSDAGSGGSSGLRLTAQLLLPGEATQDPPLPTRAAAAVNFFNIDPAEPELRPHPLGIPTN
pKi: −log10 of the molar value. Where a name gives a salt, the structure may show the parent alone.
Observed property: pKi

Recorded pKi, per entry:
- Molecule: "O=S(=O)(c1cccc(C(F)(F)F)c1)N1CCc2cc(C3CNC3)ccc21 [compound 30, hydrochloride]"
  pKi: "> 8.30"
- Molecule: "CCCN1CC(c2ccc3c(ccn3S(=O)(=O)c3cccc(OC(F)(F)F)c3)c2)C1 [compound 26, hydrochloride]"
  pKi: "> 8.30"
- Molecule: "CCCN1CC(c2ccc3c(ccn3S(=O)(=O)c3ccccc3)c2)C1 [compound 5, hydrochloride]"
  pKi: "> 8.30"
- Molecule: "O=S(=O)(c1ccccc1)n1ccc2cc(C3CNC3)ccc21 [compound 2, hydrochloride]"
  pKi: "> 8.30"
- Molecule: "O=S(=O)(c1ccccc1)N1CCc2cc(C3CNC3)ccc21 [compound 7, hydrochloride]"
  pKi: "> 8.30"

Prompt: Please state recorded pKi (tested on h-5-HT6 receptor (Homo sapiens, UniProt P50406)) of CCCN1CC(c2ccc3c(ccn3S(=O)(=O)c3cccc(C(F)(F)F)c3)c2)C1 [compound 25, hydrochloride]
Completion: > 8.30

Prompt: Another molecule: CN1CC(c2ccc3c(ccn3S(=O)(=O)c3ccccc3)c2)C1 [compound 29, hydrochloride]
Completion: > 8.00

Prompt: Another molecule: O=S(=O)(c1ccc(-c2cnco2)cc1)n1ccc2cc(C3CNC3)ccc21 [compound 3, hydrochloride]
Completion: > 6.60

Prompt: Another molecule: O=S(=O)(c1ccc(-c2cnco2)cc1)N1CCc2cc(C3CNC3)ccc21 [compound 8]
Completion: > 6.60

Prompt: Another molecule: CCCN1CC(c2ccc3c(ccn3S(=O)(=O)c3ccc(OC(F)F)cc3)c2)C1 [compound 4, hydrochloride]
Completion: > 7.30

Prompt: Another molecule: CCN1CC(c2ccc3c(ccn3S(=O)(=O)c3ccccc3)c2)C1 [compound 28, hydrochloride]
Completion: > 8.00
